# target_of_assay: T1, mouse programmed cell death protein 1 Fc fusion protein (mPD-1-Fc), mPD-1 C60S (aa 25-167) (Mus musculus, UniProt Q02242, stabilised)
# T1 construct: not cleaved; source: Expi293F, purified (Protein A, SEC; dimeric fraction); not shown: Fc (human), C-terminal, kept
# protocol_description: SPR; Carterra LSA; Fab from the ammonium sulfate precipitate of the culture supernatant immobilised on a NiHC200M chip; hPD-1 (1-1024 nM) or mPD-1-Fc (4-1024 nM) as analyte, fourfold dilution series, no regeneration; HBS-EP pH 7.4, 25 °C; medians over the spots of a construct, KD = koff/kon
# condition_summary: one partner purified
measure: pKd
Lab note — pKd values are minus log10 of concentrations in M.

Worked set:
toripalimab Fab L.P100W (Fab, V domains shown, as the heavy chain of Sm3; light chain of Sm3 with this change; numbers count from the chain's first residue; source: Brevibacillus, culture supernatant (ammonium sulfate precipitate); not shown: 6xHis, C-terminal, kept; 6xHN, C-terminal, kept) VH: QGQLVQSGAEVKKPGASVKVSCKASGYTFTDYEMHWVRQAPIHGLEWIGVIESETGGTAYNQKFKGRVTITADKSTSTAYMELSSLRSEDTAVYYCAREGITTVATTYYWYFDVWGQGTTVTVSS VL: DVVMTQSPLSLPVTLGQPASISCRSSQSIVHSNGNTYLEWYLQKPGQSPQLLIYKVSNRFSGVPDRFSGSGSGTDFTLKISRVEAEDVGVYYCFQGSHVWLTFGQGTKLEIK | 8.44
toripalimab Fab H.T107Y (Fab, V domains shown, heavy chain of Sm3 with this change; numbers count from the chain's first residue; as the light chain of Sm3; source: Brevibacillus, culture supernatant (ammonium sulfate precipitate); not shown: 6xHis, C-terminal, kept; 6xHN, C-terminal, kept) VH: QGQLVQSGAEVKKPGASVKVSCKASGYTFTDYEMHWVRQAPIHGLEWIGVIESETGGTAYNQKFKGRVTITADKSTSTAYMELSSLRSEDTAVYYCAREGITTVATYYYWYFDVWGQGTTVTVSS VL: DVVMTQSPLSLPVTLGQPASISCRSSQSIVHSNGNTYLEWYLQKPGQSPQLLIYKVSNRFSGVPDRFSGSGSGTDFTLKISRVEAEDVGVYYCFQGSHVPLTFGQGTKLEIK | 6.86

query: Requested read-out: pKd. Entry: toripalimab Fab L.L101K (Fab, V domains shown, as the heavy chain of Sm3; light chain of Sm3 with this change; numbers count from the chain's first residue; source: Brevibacillus, culture supernatant (ammonium sulfate precipitate); not shown: 6xHis, C-terminal, kept; 6xHN, C-terminal, kept) VH: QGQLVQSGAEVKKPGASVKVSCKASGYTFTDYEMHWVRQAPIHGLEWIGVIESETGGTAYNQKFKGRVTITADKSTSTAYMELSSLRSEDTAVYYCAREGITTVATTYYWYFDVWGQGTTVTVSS VL: DVVMTQSPLSLPVTLGQPASISCRSSQSIVHSNGNTYLEWYLQKPGQSPQLLIYKVSNRFSGVPDRFSGSGSGTDFTLKISRVEAEDVGVYYCFQGSHVPKTFGQGTKLEIK
result: 6.22
